System: S. aureus strain USA300-0114
Measurement description: AK assay 384-well format, Prestwick library screening
Format: cell-based, Staphylococcus aureus
Study conditions: Staphylococcus aureus, USA300, 3 h; 50 μM final drug concentration; planktonic; cutoff for positive-scoring molecules 3-fold increase; read-out: AK-based Prestwick Library Screening Results, S. aureus (fold increase in extracellular AK activity)
Where a name gives a salt, the structure may show the parent alone.
// fold induction at 50 µM lookup, one value per entry
Answer with a bare number; do not write a unit.

Worked cases, answers included:
Compound	fold induction at 50 µM
CC/C(=C(/CC)c1ccc(O)cc1)c1ccc(O)cc1 [Diethylstilbestrol]	0.6
CN(C)CCN(Cc1ccc(Cl)cc1)c1ccccn1 [Chloropyramine hydrochloride]	0.5
Nc1nc(O)c2ncn(COC(CO)CO)c2n1 [Ganciclovir]	0.9
NC(=O)c1cc[n+](CC2=C(C(=O)O)N3C(=O)[C@@H](NC(=O)[C@@H](c4ccccc4)S(=O)(=O)[O-])[C@H]3SC2)cc1 [Cefsulodin sodium salt]	1
CC[C@@]1([C@@H]2O[C@@H]([C@H]3O[C@@](O)(CO)[C@H](C)C[C@@H]3C)C[C@@H]2C)CC[C@H]([C@]2(C)CC[C@]3(C[C@H](O)[C@@H](C)[C@@H]([C@@H](C)[C@@H](OC)[C@H](C)C(=O)O)O3)O2)O1 [Monensin sodium salt]	0.7

Measured fold induction at 50 µM, Oc1ccc(OCc2ccccc2)cc1 [Monobenzone] : 0.6

Measured fold induction at 50 µM, COc1ccc(C(=O)c2ccccc2)c(O)c1 [Oxybenzone] : 0.4

Measured fold induction at 50 µM, O=C(Cn1ccnc1[N+](=O)[O-])NCCO [Etanidazole] : 0.4

Measured fold induction at 50 µM, C/C(=C(\CCOP(=O)(O)O)SC(=O)c1ccccc1)N(C=O)Cc1cnc(C)nc1N [Benfotiamine] : 0.5

Measured fold induction at 50 µM, Oc1c(I)cc(Cl)c2cccnc12 [Clioquinol] : 0.2

Measured fold induction at 50 µM, O=C1OCCN1/N=C/c1ccc([N+](=O)[O-])o1 [Furazolidone] : 0.8

----------
System: P. aeruginosa
Measurement description: AK assay 384-well format, Prestwick library screening
Assay type: cell-based, Pseudomonas aeruginosa
Study conditions: Pseudomonas aeruginosa, 3 h; planktonic P. aeruginosa; 50 μM final drug concentration; cutoff for positive-scoring molecules 3-fold increase; read-out: AK-based Prestwick Library Screening Results, P. aeruginosa (increase in extracellular AK activity)
Counter-ions that a name gives are not always drawn.
Measurement name: fold induction at 50 µM
Answer with a bare number; do not write a unit.

Measured fold induction at 50 µM, COc1cc(OC)c(C(=O)CCCN2CCCC2)c(OC)c1 [Buflomedil hydrochloride] : 0.8

Measured fold induction at 50 µM, O=C(/C=C/c1ccc(O)c(O)c1)O[C@@H]1C[C@](O)(C(=O)O)C[C@@H](O)[C@H]1O : 0.7

Measured fold induction at 50 µM, CCCc1cc(=O)[nH]c(=S)[nH]1 : 0.7

Measured fold induction at 50 µM, CN(C)CCC=C1c2ccccc2C=Cc2ccccc21 [Cyclobenzaprine hydrochloride] : 1.1

Measured fold induction at 50 µM, CCOC(=O)Oc1c(OC)cc(C(=O)O[C@@H]2C[C@@H]3CN4CCc5c([nH]c6cc(OC)ccc56)[C@H]4C[C@@H]3[C@H](C(=O)OC)[C@H]2OC)cc1OC : 0.5

Measured fold induction at 50 µM, CNCCCN1c2ccccc2CCc2ccccc21 [Desipramine hydrochloride] : 0.9

Measured fold induction at 50 µM, C=C1CC[C@H](O)C/C1=C/C=C1\CCC[C@]2(C)[C@@H]([C@H](C)/C=C/[C@H](C)C(C)C)CC[C@@H]12 : 0.7

Measured fold induction at 50 µM, COc1cccc2c1C(=O)c1c(O)c3c(c(O)c1C2=O)C[C@@](O)(C(=O)CO)C[C@@H]3O[C@H]1C[C@H](N)[C@H](O)[C@H](C)O1 [Doxorubicin hydrochloride] : 0.6

Measured fold induction at 50 µM, COC(=O)[C@@H]1[C@H]2C[C@H]3c4[nH]c5ccccc5c4CCN3C[C@@H]2CC[C@@H]1O [Yohimbine hydrochloride] : 0.9

Measured fold induction at 50 µM, C[C@@H]1CC[C@H]2[C@@H](C)C(=O)O[C@@H]3O[C@@]4(C)CC[C@@H]1[C@]32OO4 : 0.6

Measured fold induction at 50 µM, COc1cc2c(cc1OC)-c1cc3ccc(OC)c(OC)c3c[n+]1CC2 [Palmatine chloride] : 0.7

Measured fold induction at 50 µM, CC(C)COCC(CN(Cc1ccccc1)c1ccccc1)N1CCCC1 (stereo not drawn) [Bepridil hydrochloride] : 1.2

Measured fold induction at 50 µM, CC(=O)Nc1ccc(OCC(O)CNC(C)C)cc1 (stereo not drawn) : 0.6

Measured fold induction at 50 µM, COc1ccc(Cc2nccc3cc(OC)c(OC)cc23)cc1OC [Papaverine hydrochloride] : 1
